Listed here are compounds together with their documented IC50.
tested on: RAW264.7; experiment: Anti-inflammatory activity in mouse RAW264.7 cells assessed as inhibition of LPS-induced NO production preincubated for 1 hr followed by LPS stimulation and measured after 24 hrs by Griess reagent based assay; assay type: functional, cell-based
QUANTITY_MEASURED: IC50 (µM)

C=C[C@]1(COC(=O)CC(C)C)C=C2CC[C@H]3[C@@](C)(CCC[C@@]3(C)C(=O)O)[C@@H]2CC1    10.6
C[C@@]12CCC[C@@](C)(C(=O)O)[C@H]1CC[C@]13C=C(C=O)[C@H](CC[C@H]12)C3    14.2
C[C@@]12CCC[C@@](C)(C(=O)O)[C@H]1CC[C@]13C=C(CO)[C@H](CC[C@H]12)C3    47.8
C=C/C(C)=C\C[C@@H]1C(=C)CC[C@@H]2[C@](C)(CO)CCC[C@@]12C    44
